Catalogue of inhibition readings, one per entry.
measurement target: Histone-lysine N-methyltransferase EZH2 (Homo sapiens) (UniProt Q15910)
Sequence (Q15910 whole entry, looked up): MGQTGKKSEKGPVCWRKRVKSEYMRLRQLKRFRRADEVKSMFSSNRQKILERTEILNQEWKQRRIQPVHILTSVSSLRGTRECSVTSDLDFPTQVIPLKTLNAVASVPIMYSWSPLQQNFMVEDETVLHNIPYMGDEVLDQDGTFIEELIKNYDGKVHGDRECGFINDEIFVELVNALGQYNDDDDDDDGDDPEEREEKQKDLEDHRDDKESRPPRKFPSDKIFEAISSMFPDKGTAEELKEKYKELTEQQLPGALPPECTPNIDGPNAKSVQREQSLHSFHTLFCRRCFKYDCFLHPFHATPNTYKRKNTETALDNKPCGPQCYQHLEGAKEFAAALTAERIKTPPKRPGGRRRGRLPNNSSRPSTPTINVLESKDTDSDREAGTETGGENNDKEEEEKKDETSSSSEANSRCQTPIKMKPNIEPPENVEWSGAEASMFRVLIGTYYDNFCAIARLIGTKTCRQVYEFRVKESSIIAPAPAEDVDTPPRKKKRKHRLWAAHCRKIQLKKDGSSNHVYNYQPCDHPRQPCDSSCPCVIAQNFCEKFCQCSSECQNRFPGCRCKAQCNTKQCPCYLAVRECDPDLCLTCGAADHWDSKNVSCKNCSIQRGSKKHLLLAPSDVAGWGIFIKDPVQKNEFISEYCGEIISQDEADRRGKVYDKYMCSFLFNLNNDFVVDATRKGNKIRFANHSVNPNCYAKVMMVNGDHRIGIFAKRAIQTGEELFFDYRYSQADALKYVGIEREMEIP
protocol description: inhibition of PRC2 H3K27 methylation – biochemical, DELFIA time-resolved fluorescence, single point, primary screen (AID 651548);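 also: dimethyl H3K27 on biotinylated H3 21-44 peptide detected by antibody; plate controls were median neutral control wells for no effect and median positive control wells for full effect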
condition details: DELFIA TRF, 1 h, at 12.5 µM, active compounds read high
Screen size: about 57,000 compounds; about 200 (0.35%) were called active. The sample as a whole holds a higher share of actives than the screen did.
# unit: % | format: bare number

Here are 4 compounds together with their reported answers.
CO[C@@H]1CN(C)C(=O)c2ccc(NC(=O)Nc3c(C)noc3C)cc2OC[C@@H](C)N(C(=O)Nc2cccc(Cl)c2)C[C@H]1C :: -3.56
O=C(NCC[C@H]1CC[C@@H](NC(=O)c2ccncc2)[C@@H](CO)O1)Nc1ccc(Cl)cc1 :: 1.17
O=C(C[C@@H]1C[C@@H]2c3cc(NC(=O)Nc4ccc(F)cc4)ccc3O[C@@H]2[C@H](CO)O1)NCC(F)(F)F :: -13.1
C[C@H](NC(=O)C[C@H]1C=C[C@@H](NC(=O)C2CCOCC2)[C@@H](CO)O1)c1ccccc1 :: 3.06

Next up:
**Query** Given the compound COc1cccc(-c2cnc3c(c2)C(=O)N([C@H](C)CO)C[C@@H](C)[C@H](CN(C)Cc2ccc(F)cc2)O3)c1 , what is its reported inhibition?
**Result** 10

====

measurement target: Histone-lysine N-methyltransferase EZH2 (Homo sapiens) (UniProt Q15910)
protocol description: inhibition of PRC2 H3K27 methylation – biochemical, DELFIA time-resolved fluorescence, single point, primary screen (AID 651548);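 also: dimethyl H3K27 on biotinylated H3 21-44 peptide detected by antibody; plate controls were median neutral control wells for no effect and median positive control wells for full effect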
condition details: DELFIA TRF, 1 h, at 12.5 µM, active compounds read high
Hit rate of the full screen: of about 57,000 compounds, about 200 (0.35%) were called active. What follows is part of a selection rich in actives, with near analogues and random picks from the rest.
measurement type: inhibition (%)
Give the number; % is assumed, so skip it.

COCC#Cc1cnc2c(c1)C(=O)N([C@H](C)CO)C[C@H](C)[C@H](CN(C)C(=O)Nc1cc(F)ccc1F)O2 :: 0.676
COc1cccc(S(=O)(=O)Nc2ccc3c(c2)[C@@H]2C[C@@H](CC(=O)NCc4ccc(Cl)cc4)O[C@H](CO)[C@@H]2O3)c1 :: -2.95
Cc1ccccc1S(=O)(=O)NCC[C@@H]1CC[C@H](NC(=O)C2CC2)[C@@H](CO)O1 :: -14.1
O=S(=O)(N[C@@H]1CC[C@@H](CCn2cc(-c3ccccn3)nn2)O[C@@H]1CO)c1cccc(Cl)c1 :: 1.97
OC[C@H]1O[C@@H](OCc2ccccc2)[C@H](O[C@@H]2OC[C@](O)(CO)[C@H]2O)[C@@H](O)[C@@H]1O :: 10.5
CO[C@H]1CN(C)C(=O)c2cc(NC(=O)NC(C)C)ccc2OC[C@@H](C)NC[C@@H]1C :: 4.41
CN1CCN(C(=O)C[C@@H]2C[C@@H]3c4cc(NC(=O)c5ccc6c(c5)OCO6)ccc4O[C@@H]3[C@H](CO)O2)CC1 :: -2.8
C[C@@H]1CN([C@@H](C)CO)S(=O)(=O)c2ccc(C3=CCCCC3)cc2O[C@@H]1CN(C)C(=O)CN(C)C :: -15.1

Now take the following compound into account.
**Query** Look up inhibition: OC[C@@]1(O)CO[C@H](OC[C@H]2O[C@@H](OC(CCCCc3ccc(O)cc3)CCc3ccc(O)cc3)[C@H](O[C@H]3OC[C@](O)(CO)[C@H]3O)[C@@H](O)[C@@H]2O)[C@@H]1O (some centres not stated)
**Result** 99

Where do these numbers come from? They come from PubChem BioAssay AID651548.
